- target: Glutamate NMDA receptor; Grin1/Grin2c (Rattus norvegicus, UniProt P35439+Q00961)
- Sequence (Q00961 whole entry, other chains not shown): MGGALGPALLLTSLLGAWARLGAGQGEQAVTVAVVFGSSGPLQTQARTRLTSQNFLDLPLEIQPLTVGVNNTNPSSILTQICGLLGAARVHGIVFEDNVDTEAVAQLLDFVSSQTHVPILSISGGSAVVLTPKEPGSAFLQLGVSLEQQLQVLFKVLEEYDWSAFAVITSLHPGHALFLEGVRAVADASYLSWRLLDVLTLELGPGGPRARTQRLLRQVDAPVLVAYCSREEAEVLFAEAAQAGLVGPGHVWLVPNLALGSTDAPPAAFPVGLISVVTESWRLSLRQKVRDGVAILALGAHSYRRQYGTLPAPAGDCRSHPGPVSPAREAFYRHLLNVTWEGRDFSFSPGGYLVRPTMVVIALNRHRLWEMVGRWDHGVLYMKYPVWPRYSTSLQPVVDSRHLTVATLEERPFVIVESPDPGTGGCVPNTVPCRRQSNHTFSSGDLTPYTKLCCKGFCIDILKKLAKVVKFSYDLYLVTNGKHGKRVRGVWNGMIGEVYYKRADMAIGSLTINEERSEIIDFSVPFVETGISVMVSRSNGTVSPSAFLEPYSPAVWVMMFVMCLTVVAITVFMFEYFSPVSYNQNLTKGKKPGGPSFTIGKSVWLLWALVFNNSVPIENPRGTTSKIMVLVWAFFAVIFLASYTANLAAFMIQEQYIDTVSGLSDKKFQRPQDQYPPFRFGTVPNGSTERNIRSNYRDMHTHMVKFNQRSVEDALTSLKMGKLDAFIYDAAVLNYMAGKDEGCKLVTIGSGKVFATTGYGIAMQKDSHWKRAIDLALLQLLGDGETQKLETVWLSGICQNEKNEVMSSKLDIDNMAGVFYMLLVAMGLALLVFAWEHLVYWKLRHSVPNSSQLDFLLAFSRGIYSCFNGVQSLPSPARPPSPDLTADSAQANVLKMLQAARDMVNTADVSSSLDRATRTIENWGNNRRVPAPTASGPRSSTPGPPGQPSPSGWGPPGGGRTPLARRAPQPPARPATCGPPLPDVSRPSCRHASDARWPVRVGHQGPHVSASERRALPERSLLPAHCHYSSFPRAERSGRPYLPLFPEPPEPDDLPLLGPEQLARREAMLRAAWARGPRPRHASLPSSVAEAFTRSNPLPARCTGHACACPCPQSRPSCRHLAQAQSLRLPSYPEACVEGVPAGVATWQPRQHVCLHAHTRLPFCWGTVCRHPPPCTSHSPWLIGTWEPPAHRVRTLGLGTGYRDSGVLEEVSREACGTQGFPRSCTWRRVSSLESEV
- assay.explanation: Activity at rat recombinant GluN1/GluN2C receptor assessed as potentiation of glycine/glutamate-induced activation by two-electrode voltage clamp technique
Below: a set of entries, each annotated with reported pEC50.
# log scale: pEC50 equals minus log10 of the concentration in mol/L

These recorded examples may help you get a feel for the data.
>>> df
                                   molecule                                    target  test_result
0  COc1ccc(OCC2c3cc(OC)c(OC)cc3CCN2C(=O)c2cccc(OC)c2)cc1 (racemic)  Glutamate NMDA receptor; Grin1/Grin2c (Rattus norvegicus, UniProt P35439+Q00961)         5.24
1  COc1ccc(OCC2c3ccc(OC)cc3CCN2C(=O)c2cccc(C(C)=O)c2)cc1 (racemic)  Glutamate NMDA receptor; Grin1/Grin2c (Rattus norvegicus, UniProt P35439+Q00961)         4.68
2  COc1ccc(OCC2c3cc(OC)c(OC)cc3CCN2C(=O)c2ccc(F)c(Cl)c2)cc1 (racemic)  Glutamate NMDA receptor; Grin1/Grin2c (Rattus norvegicus, UniProt P35439+Q00961)         5.28
3  COc1ccc(OCC2c3cc(OC)c(OC)cc3CCN2C(=O)c2cccc(C(Cl)Cl)c2)cc1 (racemic)  Glutamate NMDA receptor; Grin1/Grin2c (Rattus norvegicus, UniProt P35439+Q00961)         5.43

From here, focus on the item given below.
Inquiry: Please report pEC50 for the following molecule: COc1ccc(OCC2c3cc(OC)c(OC)cc3CCN2C(=O)c2cccc(CCl)c2)cc1 (racemic)
Reply text: 4.77
